Source: patent US20210221777A1

# System: pancreatic (PANC-1), liver (HepG2), and colon (HCT-116) tumor cell lines
# EXPERIMENT_NOTES: Cytotoxicity of fresh 1, summary over PANC-1, HepG2 and HCT-116
# Assay type: cell-based
# CONDITION_DESCRIPTION: range over PANC-1, HepG2, HCT-116; read-out: IC50 of fresh 1 across three tumor cell lines

SMILES_INPUT | TARGET_OF_ASSAY | IC50
C=CC/C=C\Cc1csc(C(C)(C)[C@H](O)C/C=C\C(=C)CCNC(=O)OC)n1 | pancreatic (PANC-1), liver (HepG2), and colon (HCT-116) tumor cell lines | 0.16 to 0.36 nM
